Source listed as BigSolDB 2.1.

Details: in n-butanol, 318.15 K
recorded-metric: solubility (mole fraction)
Answers are plain numbers.

Consider the molecule `COc1ccc(C(=O)O)cc1` and give its recorded solubility (mole fraction).
0.0218

* * *

Settings: in ethyl formate, 288.15 K
recorded-metric: solubility (mole fraction)
One number for each entry.

Consider the compound `COc1ccc(C(=O)O)cc1` and give its recorded solubility (mole fraction).
0.00508

* * *

Conditions: in n-butyl acetate, 308.15 K
recorded-metric: solubility (mole fraction)

Consider the compound `COc1ccc(C(=O)O)cc1` and give its recorded solubility (mole fraction).
0.0136

* * *

Conditions: in n-propyl acetate, 293.15 K
recorded-metric: solubility (mole fraction)
Answers are plain numbers.

Consider the compound `COc1ccc(C(=O)O)cc1` and give its recorded solubility (mole fraction).
0.0089
